EXPERIMENTAL_TARGET: Follistatin (Homo sapiens)
EXPERIMENT_SUMMARY: follistatin binders on small-molecule microarrays, primary screen, biochemical, small-molecule microarray, 635/667 nm fluorescence (AID 1132)
CONDITIONS_USED: FST binding, 635 nm fluorescence, higher = more signal
Short version: composite z-score at least 1 is YES, less is NO.

Before answering, review these 3 worked examples.
1. CCOC(=O)C[C@H]1[C@H](OC(=O)c2ccc(C(=O)c3ccccc3)cc2)[C@@H](NC(=O)c2ccc3ccccc3c2)c2cc(OCCCO)ccc2N1C(=O)c1ccccc1; NO
2. C=CCOC(=O)[C@H]1[C@@H]2C(=O)O[C@@H](c3ccccc3)[C@@H](c3ccccc3)N2[C@@H](c2ccc(OCCOC(=O)[C@H]3C[C@H]4C(=O)N[C@@H](Cc5ccccc5)C(=O)N4[C@H]3c3cccc(OCCO)c3)cc2)[C@]12C(=O)Nc1ccc(I)cc12; YES
3. CCCCN1CC=CC23O[C@@H]4C=CCOC(=O)[C@@H]4[C@H]2C(=O)N(C(C)CO)[C@@H]3C1=O (some centres undefined); NO

Please check the record `C=CC[C@@]12N=C(c3ccc(OCCCO)cc3)O[C@@H]1c1ccccc1N(CCS(=O)(=O)c1ccccc1)C2=O` and state if its composite z-score is at or above 1.
YES

Please check the record `COc1ccc(CCNC(=O)[C@@]2(Sc3ccc(C)cc3)CC(=O)N(Cc3cc(C(F)(F)F)cc(C(F)(F)F)c3)[C@@H]2c2ccc(CO)cc2I)cc1` and state if its composite z-score is at or above 1.
NO

Please check the record CN1C2C=C(CCCO)C(C3C(=O)N(C(N)=O)C(=O)C32)C1c1cccs1 (centres undefined) and state if its composite z-score is at or above 1.
NO

Please check the record `CC(C)(C)OC(=O)CC[C@]1(C(=O)O)N=C(c2ccc(OCCCO)cc2)O[C@H]1c1ccccc1` and state if its composite z-score is at or above 1.
NO

Please check the record `C=CCN1C(=O)[C@@]2(O[C@@H](CCn3cc([C@H](O)c4ccccc4)nn3)[C@H]([Si](C)(C)c3ccc(OC)cc3)[C@H]2C)c2ccccc21` and state if its composite z-score is at or above 1.
YES

Please check the record CC=CC(O)C1C=CC2C(=O)N(C)C(=O)C2N1N1CCCCC1 (centres undefined) and state if its composite z-score is at or above 1.
YES

Please check the record `C=CCN1C(=O)[C@]2(CC=C)N=C(c3ccc(OCCCO)cc3)O[C@@H]2c2ccccc21` and state if its composite z-score is at or above 1.
YES

Please check the record `COCCOC(=O)N1C(=O)[C@@]2(c3ccccc31)[C@H](C(=O)N1CCN(c3ncccn3)CC1)[C@H]1C(=O)O[C@H](c3ccccc3)[C@H](c3ccccc3)N1[C@@H]2c1ccc(OCCO)cc1` and state if its composite z-score is at or above 1.
YES

Please check the record `CN(C)CCCNC(=O)[C@@H]1c2ccccc2C(=O)N(Cc2ccc(OC(F)(F)F)cc2)[C@H]1c1ccc(CO)cc1` and state if its composite z-score is at or above 1.
YES

Please check the record `COCC(=C=CC[C@H](O)c1cccc(OCCO)c1)C[C@H](O)c1ccccn1` and state if its composite z-score is at or above 1.
YES

Please check the record `COc1ccccc1CN1C(=O)c2ccccc2[C@@H](C(=O)NC(C)C)[C@@H]1c1ccc(CO)cc1` and state if its composite z-score is at or above 1.
YES

From: PubChem BioAssay
